Listed molecules paired with reported EC50
- test.system: hOTR (Homo sapiens)
- Construct: expressed in transfected cells
- method.notes: IP-One accumulation assay, agonist function, HEK293 cells expressing hOTR
- Type: cell-based
- test.settings: supplementary CSV; read-out: activity Z-isomer OTR
Numbered stars: 1 amine (or outer) side, 2 acyl side, 3 side chain; on linkers, the order of the positions; unused ones are H or OH. Bridge positions count the residues as written; N and C are the ends. Square brackets hold non-standard residues; d marks the D form. Peptide text beside a SMILES is read from it. AMPB(E) = O=C(c1ccc(/N=N/c2ccc(CN[*:1])cc2)cc1)[*:2]; X1 = O=C([C@H](Cc1ccc(/N=N/c2ccccc2)cc1)N[*:1])[*:2]
recorded.endpoint: EC50 (nM)

| molecule | unit.of.measurement | test.value |
| --- | --- | --- |
| CC[C@H](C)[C@@H]1NC(=O)[C@H](Cc2ccc(O)cc2)NC(=O)[C@@H](N)CSSC[C@@H](C(=O)NCc2ccc(/N=N/c3ccc(C(=O)NCC(N)=O)cc3)cc2)NC(=O)[C@H](CC(N)=O)NC(=O)[C@H](CCC(N)=O)NC1=O [compound 10, [AzbL^7/8]-OT] (H-CYIQNC[AMPB(E)]G-NH2; disulfide 1-6) | nM | 30.7 |
| CC[C@H](C)[C@@H]1NC(=O)[C@H](Cc2ccc(/N=N/c3ccccc3)cc2)NC(=O)[C@@H](N)CSSC[C@@H](C(=O)N2CCC[C@H]2C(=O)N[C@@H](CC(C)C)C(=O)NCC(N)=O)NC(=O)[C@H](CC(N)=O)NC(=O)[C@H](CCC(N)=O)NC1=O [compound 8, [AzbS^2]-OT] (H-C[X1]IQNCPLG-NH2; disulfide 1-6) | nM | 3500 |
| CC[C@H](C)[C@@H]1NC(=O)[C@H](Cc2ccc(O)cc2)NC(=O)[C@@H](N)CSSC[C@@H](C(=O)N[C@@H](Cc2ccc(/N=N/c3ccccc3)cc2)C(=O)N[C@@H](CC(C)C)C(=O)NCC(N)=O)NC(=O)[C@H](CC(N)=O)NC(=O)[C@H](CCC(N)=O)NC1=O [compound 9, [AzbS^7]-OT] (H-CYIQNC[X1]LG-NH2; disulfide 1-6) | nM | 136 |
| CC[C@H](C)[C@@H]1NC(=O)[C@H](Cc2ccc(O)cc2)NC(=O)[C@@H](N)CSSC[C@@H](C(=O)NCc2ccc(/N=N/c3ccc(C(=O)N[C@@H](CC(C)C)C(=O)NCC(N)=O)cc3)cc2)NC(=O)[C@H](CC(N)=O)NC(=O)[C@H](CCC(N)=O)NC1=O [compound 11, [AzbL^7]-OT] (H-CYIQNC[AMPB(E)]LG-NH2; disulfide 1-6) | nM | 134 |

###

- test.system: hV1bR (Homo sapiens, UniProt P47901)
- Construct: expressed in transfected cells
- Sequence (P47901 1-424): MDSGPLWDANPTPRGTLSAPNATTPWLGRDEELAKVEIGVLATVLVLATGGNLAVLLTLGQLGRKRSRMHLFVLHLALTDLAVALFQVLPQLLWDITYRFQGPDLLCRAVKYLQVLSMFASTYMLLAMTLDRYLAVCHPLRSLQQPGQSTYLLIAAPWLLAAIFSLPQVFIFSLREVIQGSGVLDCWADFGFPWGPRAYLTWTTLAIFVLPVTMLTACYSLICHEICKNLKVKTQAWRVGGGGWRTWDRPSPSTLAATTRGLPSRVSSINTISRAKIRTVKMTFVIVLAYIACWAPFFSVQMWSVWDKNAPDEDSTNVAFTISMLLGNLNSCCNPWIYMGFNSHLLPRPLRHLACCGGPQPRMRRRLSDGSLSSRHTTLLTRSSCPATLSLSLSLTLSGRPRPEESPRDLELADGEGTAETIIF
- method.notes: IP-One accumulation assay, agonist function, HEK293 cells expressing hV1bR
- Format: cell-based
- test.settings: ratio of EC50 of E- and Z-isomer
Numbered stars: 1 amine (or outer) side, 2 acyl side, 3 side chain; on linkers, the order of the positions; unused ones are H or OH. Bridge positions count the residues as written; N and C are the ends. Square brackets hold non-standard residues; d marks the D form. Peptide text beside a SMILES is read from it. AMPB(E) = O=C(c1ccc(/N=N/c2ccc(CN[*:1])cc2)cc1)[*:2]; X2 = O=C(c1ccc(/N=N\c2ccc(CN[*:1])cc2)cc1)[*:2]

| compound | V1bR E/Z ratio EC50 |
| --- | --- |
| N=C(N)NCCC[C@H](NC(=O)c1ccc(/N=N/c2ccc(CNC(=O)[C@@H]3CSSC[C@H](N)C(=O)N[C@@H](Cc4ccc(O)cc4)C(=O)N[C@@H](Cc4ccccc4)C(=O)N[C@@H](CCC(N)=O)C(=O)N[C@@H](CC(N)=O)C(=O)N3)cc2)cc1)C(=O)NCC(N)=O [E-14] (H-CYFQNC[AMPB(E)]RG-NH2; disulfide 1-6) | 2.1 |
| N=C(N)NCCC[C@H](NC(=O)c1ccc(/N=N\c2ccc(CNC(=O)[C@@H]3CSSC[C@H](N)C(=O)N[C@@H](Cc4ccc(O)cc4)C(=O)N[C@@H](Cc4ccccc4)C(=O)N[C@@H](CCC(N)=O)C(=O)N[C@@H](CC(N)=O)C(=O)N3)cc2)cc1)C(=O)NCC(N)=O [Z-14] (H-CYFQNC[X2]RG-NH2; disulfide 1-6) | 2.1 |
| NC(=O)CC[C@@H]1NC(=O)[C@H](Cc2ccccc2)NC(=O)[C@H](Cc2ccc(O)cc2)NC(=O)[C@@H](N)CSSC[C@@H](C(=O)NCc2ccc(/N=N/c3ccc(C(=O)NCC(N)=O)cc3)cc2)NC(=O)[C@H](CC(N)=O)NC1=O [E-13] (H-CYFQNC[AMPB(E)]G-NH2; disulfide 1-6) | 1.6 |
| NC(=O)CC[C@@H]1NC(=O)[C@H](Cc2ccccc2)NC(=O)[C@H](Cc2ccc(O)cc2)NC(=O)[C@@H](N)CSSC[C@@H](C(=O)NCc2ccc(/N=N\c3ccc(C(=O)NCC(N)=O)cc3)cc2)NC(=O)[C@H](CC(N)=O)NC1=O [Z-13] (H-CYFQNC[X2]G-NH2; disulfide 1-6) | 1.6 |

###

- test.system: hOTR (Homo sapiens, UniProt P30559)
- Construct: expressed in transfected cells
- Sequence (P30559 whole entry): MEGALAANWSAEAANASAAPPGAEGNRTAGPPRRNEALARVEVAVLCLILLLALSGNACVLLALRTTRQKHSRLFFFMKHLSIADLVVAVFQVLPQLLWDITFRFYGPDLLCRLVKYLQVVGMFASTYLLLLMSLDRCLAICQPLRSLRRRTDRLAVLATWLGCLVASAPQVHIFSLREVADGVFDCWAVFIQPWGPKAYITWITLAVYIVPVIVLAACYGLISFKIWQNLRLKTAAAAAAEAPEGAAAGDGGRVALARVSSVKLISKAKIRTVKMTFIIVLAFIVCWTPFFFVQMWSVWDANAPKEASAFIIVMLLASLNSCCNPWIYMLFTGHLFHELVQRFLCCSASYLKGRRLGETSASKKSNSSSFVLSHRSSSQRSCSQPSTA
- method.notes: IP-One accumulation assay, agonist function, HEK293 cells expressing hOTR
- Type: cell-based
- test.settings: EC50 vs OT
Numbered stars: 1 amine (or outer) side, 2 acyl side, 3 side chain; on linkers, the order of the positions; unused ones are H or OH. Bridge positions count the residues as written; N and C are the ends. Square brackets hold non-standard residues; d marks the D form. Peptide text beside a SMILES is read from it. Phe(4-(Z)-phenylazo) = N[C@@H](Cc1ccc(/N=N\c2ccccc2)cc1)C(=O)O; X1 = O=C([C@H](Cc1ccc(/N=N/c2ccccc2)cc1)N[*:1])[*:2]; X2 = O=C(c1ccc(/N=N\c2ccc(CN[*:1])cc2)cc1)[*:2]
# key: entry, value: decrease in potency compared to OT at OTR
recorded.endpoint: decrease in potency compared to OT at OTR (fold)

| compound | modifier.sign | test.value |
| --- | --- | --- |
| CC[C@H](C)[C@@H]1NC(=O)[C@H](Cc2ccc(O)cc2)NC(=O)[C@@H](N)CSSC[C@@H](C(=O)N[C@@H](Cc2ccc(/N=N\c3ccccc3)cc2)C(=O)N[C@@H](CC(C)C)C(=O)NCC(N)=O)NC(=O)[C@H](CC(N)=O)NC(=O)[C@H](CCC(N)=O)NC1=O [Z-9] (H-CYIQNC[Phe(4-(Z)-phenylazo)]LG-NH2; disulfide 1-6) | = | 55 |
| CC[C@H](C)[C@@H]1NC(=O)[C@H](Cc2ccc(O)cc2)NC(=O)[C@@H](N)CSSC[C@@H](C(=O)NCc2ccc(/N=N\c3ccc(C(=O)N[C@@H](CC(C)C)C(=O)NCC(N)=O)cc3)cc2)NC(=O)[C@H](CC(N)=O)NC(=O)[C@H](CCC(N)=O)NC1=O [Z-11] (H-CYIQNC[X2]LG-NH2; disulfide 1-6) | = | 55 |
| CC[C@H](C)[C@@H]1NC(=O)[C@H](Cc2ccc(O)cc2)NC(=O)[C@@H](N)CSSC[C@@H](C(=O)NCc2ccc(/N=N\c3ccc(C(=O)NCC(N)=O)cc3)cc2)NC(=O)[C@H](CC(N)=O)NC(=O)[C@H](CCC(N)=O)NC1=O [Z-10] (H-CYIQNC[X2]G-NH2; disulfide 1-6) | = | 12 |
| CC[C@H](C)[C@@H]1NC(=O)[C@H](Cc2ccc(/N=N/c3ccccc3)cc2)NC(=O)[C@@H](N)CSSC[C@@H](C(=O)N2CCC[C@H]2C(=O)N[C@@H](CC(C)C)C(=O)NCC(N)=O)NC(=O)[C@H](CC(N)=O)NC(=O)[C@H](CCC(N)=O)NC1=O [compound 8, [AzbS^2]-OT] (H-C[X1]IQNCPLG-NH2; disulfide 1-6) | > | 1400 |
